MEASURED_TARGET: T1, eIF4E (residues 69–248), purified (Drosophila melanogaster, UniProt P48598-2 69-248)
T1 construct: eIF4E, Drosophila melanogaster, residues 69–248; the methods say the tag was cleaved with HRV3C; also called truncated eIF4E; eIF4E trunc; not shown: His6, N-terminal, cleaved
T1 sequence (looked up): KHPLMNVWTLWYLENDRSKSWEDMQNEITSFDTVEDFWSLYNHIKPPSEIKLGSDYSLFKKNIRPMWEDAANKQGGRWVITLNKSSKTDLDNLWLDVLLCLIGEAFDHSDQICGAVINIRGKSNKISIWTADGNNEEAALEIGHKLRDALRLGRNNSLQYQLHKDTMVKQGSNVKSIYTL
EXPERIMENT_DESCRIPTION: ITC; VP-ITC, 20 °C; eIF4E (69–248, WT or mutant, 1–20 μM) in the cell, tenfold concentrated GB1-stabilized peptides titrated in; 20 mM Na-phosphate pH 7.0, 150 mM NaCl; one-site binding model
APPLIED_CONDITIONS: both partners purified
Entries whose stoichiometry N is below 1 take T; entries at or above 1 take F.

Inquiry: Quick check: does TKLIYERAFMKNLRGSPLSQTPPSNVPSCLLRGT (domain or fragment) [Thor C+NC peptide fused C-terminally to GB1] have stoichiometry N under 1?
Reply text: T

Inquiry: Problem: For the binder RYSKVDLLALRYE (domain or fragment) [4E-T C peptide fused C-terminally to GB1] , is stoichiometry N under 1?
Reply text: T

Inquiry: Strictly below 1 in stoichiometry N? CUP C+NC peptide fused C-terminally to GB1 (domain or fragment, Drosophila melanogaster, CUP, Drosophila melanogaster, canonical and non-canonical 4E-BMs; source: E. coli BL21 Star (DE3), purified (amylose, HRV3C cleavage, SEC); not shown: MBP, N-terminal, cleaved; GB1, C-terminal, kept) STGIHKPGSLRAPKAVRPTTAPVVSSKPVKSYTRSRLMDIRNGMFNALMHRSKESFVMPRIATCDDIELEGRLRRMNIWRTSDGTRFRTRSTTANLNMNNNNNNECMPAFFKNKNKPNLISDESIIQSQP
Reply text: F

Inquiry: Dear reviewer, please state whether RYSKVDLLALRYEGKSRQRPQCSTRLELQTLGFWKI (domain or fragment) [4E-T C+NC peptide fused C-terminally to GB1] has stoichiometry N strictly beneath 1.
Reply text: T

Inquiry: Does TKLIYERAFMKNLR (domain or fragment) [Thor C peptide fused C-terminally to GB1] have stoichiometry N strictly under 1?
Reply text: F

Sourced from paper PMC4164784
